# tested-system: mouse SMO^W535L (Mus musculus, UniProt P56726, W539L)
# Construct: expressed in transfected cells
# Sequence (P56726 33-793 W539L): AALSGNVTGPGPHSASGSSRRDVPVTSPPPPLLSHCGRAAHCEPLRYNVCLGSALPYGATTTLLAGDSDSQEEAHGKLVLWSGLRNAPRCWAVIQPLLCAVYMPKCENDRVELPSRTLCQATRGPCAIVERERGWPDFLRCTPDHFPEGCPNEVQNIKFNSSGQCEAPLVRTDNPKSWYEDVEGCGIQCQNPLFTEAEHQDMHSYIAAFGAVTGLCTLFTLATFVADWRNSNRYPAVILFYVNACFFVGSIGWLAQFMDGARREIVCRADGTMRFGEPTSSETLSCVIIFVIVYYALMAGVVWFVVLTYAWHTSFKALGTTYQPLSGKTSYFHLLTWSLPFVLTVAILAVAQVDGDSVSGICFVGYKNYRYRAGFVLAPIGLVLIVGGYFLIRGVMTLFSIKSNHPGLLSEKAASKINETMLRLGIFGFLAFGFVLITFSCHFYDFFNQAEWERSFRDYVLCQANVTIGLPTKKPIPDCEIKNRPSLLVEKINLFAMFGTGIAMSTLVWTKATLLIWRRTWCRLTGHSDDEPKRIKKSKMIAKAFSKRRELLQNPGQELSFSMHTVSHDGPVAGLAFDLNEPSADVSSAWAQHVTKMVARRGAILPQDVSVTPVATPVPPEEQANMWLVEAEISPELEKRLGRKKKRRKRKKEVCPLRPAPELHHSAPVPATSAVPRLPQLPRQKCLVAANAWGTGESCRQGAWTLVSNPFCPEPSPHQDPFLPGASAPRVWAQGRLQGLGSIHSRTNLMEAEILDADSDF
# measurement-protocol: Mouse assay: Gli1 qPCR in MEF cells stably expressing mouse SMO W535L
# Format: cell-based
# test-parameters: mSHh-treated, 24 hours, Gli1 inhibition by qPCR, read-out: Mouse W535L pIC50 (converted)
endpoint-name: IC50 (nM)

INSERT INTO measurements (compound, tested_system, endpoint_name, scale_unit, bound_sign, readout_value) VALUES
  ('O=C(Nc1ccc(-c2nc(Cc3ccc(Cl)cc3)n[nH]2)cc1)c1cccc(CN2CCS(=O)(=O)CC2)c1 [Example 3-23]', 'mouse SMO^W535L (Mus musculus, UniProt P56726, W539L)', 'IC50', 'nM', '=', 25.1),
  ('O=C(Nc1ccc(-c2nc(Cc3ccccc3)n[nH]2)cc1)c1cccc(CN2CCS(=O)(=O)CC2)c1 [Example 3-17]', 'mouse SMO^W535L (Mus musculus, UniProt P56726, W539L)', 'IC50', 'nM', '=', 39.8),
  ('O=C(Nc1ccc(-c2cc(C3CC3)n[nH]2)cc1)c1ccc(Cl)c(CN2CCS(=O)(=O)CC2)c1 [Example 4-20]', 'mouse SMO^W535L (Mus musculus, UniProt P56726, W539L)', 'IC50', 'nM', '=', 10),
  ('O=C(Nc1ccc(-c2nc(-c3cccc(Oc4nccs4)c3)n[nH]2)cc1)c1cccc(CN2CCS(=O)(=O)CC2)c1 [Example 3-13]', 'mouse SMO^W535L (Mus musculus, UniProt P56726, W539L)', 'IC50', 'nM', '>', 3310),
  ('O=C(Nc1ccc(-c2cc(C3CC3)on2)cc1)c1cccc(CN2CCS(=O)(=O)CC2)c1 [Example 4-7]', 'mouse SMO^W535L (Mus musculus, UniProt P56726, W539L)', 'IC50', 'nM', '=', 31.6),
  ('O=C(Nc1ccc(-c2nc(Cc3cccc(F)c3)n[nH]2)cc1)c1cccc(CN2CCS(=O)(=O)CC2)c1 [Example 3-20]', 'mouse SMO^W535L (Mus musculus, UniProt P56726, W539L)', 'IC50', 'nM', '=', 25.1),
  ('CC1(C)CN(Cc2cccc(C(=O)Nc3ccc(-c4nc(C5CC5)n[nH]4)cc3)c2)CCS1(=O)=O [Example 1-3]', 'mouse SMO^W535L (Mus musculus, UniProt P56726, W539L)', 'IC50', 'nM', '=', 158);
